System tested: UniProtKB P97612
Sequence (P97612 whole entry): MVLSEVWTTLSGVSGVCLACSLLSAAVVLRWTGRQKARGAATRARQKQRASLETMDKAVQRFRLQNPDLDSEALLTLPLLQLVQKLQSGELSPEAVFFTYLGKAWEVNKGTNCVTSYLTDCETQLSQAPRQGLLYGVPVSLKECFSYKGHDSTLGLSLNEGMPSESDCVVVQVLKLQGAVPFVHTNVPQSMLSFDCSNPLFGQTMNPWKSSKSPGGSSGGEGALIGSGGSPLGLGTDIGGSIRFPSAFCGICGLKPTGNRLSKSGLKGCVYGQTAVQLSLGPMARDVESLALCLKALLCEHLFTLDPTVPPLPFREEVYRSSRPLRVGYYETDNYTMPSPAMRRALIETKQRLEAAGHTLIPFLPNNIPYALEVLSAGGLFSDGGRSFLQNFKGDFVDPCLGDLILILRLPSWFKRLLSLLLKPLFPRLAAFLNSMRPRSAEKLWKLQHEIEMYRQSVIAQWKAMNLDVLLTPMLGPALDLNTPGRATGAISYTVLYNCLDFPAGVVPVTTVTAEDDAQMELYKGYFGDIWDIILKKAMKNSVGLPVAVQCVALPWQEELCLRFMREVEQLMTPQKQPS
Assay comment: Assay Method 2: rat FAAH-1 assay, 3H-anandamide hydrolysis in homogenate of SK-N-MC cells transfected with rat FAAH
pIC50: −log10 of the molar value. Where a name gives a salt, the structure may show the parent alone.

| Compound | Limit operator | pIC50 |
| --- | --- | --- |
| Cc1ccc(-c2cc(NCC(O)c3ccccc3)ncn2)cc1C (centres unmarked) | = | 6.15 |
| O[C@@H](CNc1cc(-c2ccc3cc[nH]c3c2)ncn1)c1ccccc1 [Example 53, trifluoroacetic acid salt] | < | 5.00 |
| OC(CNc1cc(-c2ccc(OC(F)(F)F)cc2)ncn1)c1cccc(Cl)c1 (centres unmarked) | = | 6.96 |
| NCCNc1nc(NC[C@H](O)c2ccccc2)cc(-c2ccc(C(F)(F)F)c(Cl)c2)n1 [Example 157, trifluoroacetic acid salt] | = | 5.40 |
| O[C@@H](CNc1cc(-c2ccc(C(F)(F)F)c(Cl)c2)nc(NC2CC2)n1)c1ccccc1 [Example 162, trifluoroacetic acid salt] | = | 6.89 |
| CCc1ccc(-c2cc(NCC(O)c3ccccc3)ncn2)cc1 (centres unmarked) | = | 6.63 |
| OC(CNc1cc(-c2ccc(C(F)(F)F)c(Cl)c2)ncn1)c1ccc2c(c1)OCCCO2 (centres unmarked) | = | 7.09 |
| OC(CNc1cc(-c2cccs2)ncn1)c1ccccc1 (centres unmarked) | < | 5.00 |
